Where do the numbers come from? From ChEMBL document CHEMBL5052856.

- MEASUREMENT_TARGET: Apolipoprotein L1 (Homo sapiens)
- ASSAY_NOTES: Inhibition of APOL1 G1 variant in human HEK293-T-REx cells measured by Thallium assay
pIC50: −log10 of the molar value.
Reported pIC50 values for the following compounds.
VALUE_TYPE: pIC50

COMPOUND | MEASUREMENT
O=C(NC1(CO)CCC1)[C@H]1C[C@H](c2c(-c3ccc(F)cc3)[nH]c3c(F)cc(F)cc32)C1 | > 6.60
O=C([C@H]1C[C@H](c2c(-c3ccc(F)cc3)[nH]c3c(F)cc(F)cc32)C1)N1CCCC(CO)C1 (stereo partly specified) | < 6.00
O=C([C@H]1C[C@H](c2c(-c3ccc(F)cc3)[nH]c3c(F)cc(F)cc32)C1)N1C[C@H]2C[C@@]2(CO)C1 | < 6.00
CCC1(O)CN(C(=O)[C@H]2C[C@H](c3c(-c4ccc(F)cc4)[nH]c4c(F)cc(F)cc43)C2)C1 | < 6.00
O=C(NCc1ncc[nH]1)C1CC(Cc2c(-c3ccc(F)cc3)[nH]c3c(F)cc(F)cc23)C1 (stereo unspecified) | < 6.00
C[C@@H](O)CNC(=O)[C@H]1C[C@@H](c2c(-c3ccc(F)cc3)[nH]c3c(F)cc(F)cc32)C1 | < 6.00
O=C(N[C@H](CO)C(F)(F)F)O[C@H]1C[C@H](c2c(-c3ccc(F)cc3)[nH]c3c(F)cc(F)cc32)C1 | < 6.00
O=C(NC1(CO)CC(F)(F)C1)[C@H]1C[C@H](c2c(-c3ccc(F)cc3)[nH]c3c(F)cc(F)cc32)C1 | 9.60
C[C@H](CO)NC(=O)C1CCC(c2c(-c3ccc(F)cc3)[nH]c3c(F)cc(F)cc23)C1 (stereo partly specified) | < 6.00
O=C(CNC(=O)[C@H]1C[C@H](c2c(-c3ccc(F)cc3)[nH]c3c(F)cc(F)cc32)C1)NC[C@@H](O)C(F)(F)F | < 6.00
CC1(O)CN(C(=O)[C@H]2C[C@H](c3c(-c4ccc(F)cc4)[nH]c4c(F)cc(F)cc43)C2)C1 | 9.60
Cc1cnc(NC(=O)[C@H]2C[C@H](c3c(-c4ccc(F)cc4)[nH]c4c(F)cc(F)cc43)C2)o1 | ≤ 6.60
NC(=O)[C@@H]1CCCN1C(=O)[C@H]1C[C@H](c2c(-c3ccc(F)cc3)[nH]c3c(F)cc(F)cc32)C1 | < 6.00
O=C([C@H]1C[C@H](c2c(-c3ccc(F)cc3)[nH]c3c(F)cc(F)cc32)C1)N1CCC(O)(O)CC1 | < 6.00
O=C(NC(CO)CO)[C@H]1C[C@H](c2c(-c3ccc(F)cc3)[nH]c3c(F)cc(F)cc32)C1 | > 6.60
O=C(NCCn1cccc1)[C@H]1C[C@@H](c2c(-c3ccc(F)cc3)[nH]c3c(F)cc(F)cc32)C1 | < 6.00

###

- MEASUREMENT_TARGET: Apolipoprotein L1 (Homo sapiens, UniProt O14791)
- ASSAY_NOTES: Inhibition of APOL1 G1 variant in human HEK293-T-REx cells measured by Thallium assay

MOLECULE | IC50
O=C([C@H]1C[C@H](c2c(-c3ccc(F)cc3)[nH]c3c(F)cc(F)cc32)C1)N1CCC[C@@H]1CO | 0.25 nM
O=C(O)CNC(=O)[C@H]1C[C@H](c2c(-c3ccc(F)cc3)[nH]c3c(F)cc(F)cc32)C1 | > 1000 nM
CC(C)[C@@H](CO)NC(=O)[C@H]1C[C@H](c2c(-c3ccc(F)cc3)[nH]c3c(F)cc(F)cc32)C1 | > 1000 nM
O=C(NCCn1cnnc1)[C@H]1C[C@H](c2c(-c3ccc(F)cc3)[nH]c3c(F)cc(F)cc32)C1 | > 1000 nM
NCCCNC(=O)[C@H]1C[C@H](c2c(-c3ccc(F)cc3)[nH]c3c(F)cc(F)cc32)C1 | 0.25 nM
O=C([C@H]1C[C@@H](c2c(-c3ccc(F)cc3)[nH]c3c(F)cc(F)cc32)C1)N1C[C@@H](O)[C@H](O)C1 | > 1000 nM
Cc1cc(NC(=O)[C@H]2C[C@H](c3c(-c4ccc(F)cc4)[nH]c4c(F)cc(F)cc43)C2)no1 | 0.25 nM
O=C([C@H]1C[C@H](c2c(-c3ccc(F)cc3)[nH]c3c(F)cc(F)cc32)C1)N1CCOC(CO)C1 (stereo partly drawn) | > 1000 nM

###

Reported pIC50 values for the following compounds.
- MEASUREMENT_TARGET: Apolipoprotein L1 (Homo sapiens)
- ASSAY_NOTES: Inhibition of APOL1 G1 variant in human HEK293-T-REx cells measured by Thallium assay
pIC50: −log10 of the molar value.
VALUE_TYPE: pIC50

COMPOUND | MEASUREMENT
O=C1CCC(NC(=O)[C@H]2C[C@H](c3c(-c4ccc(F)cc4)[nH]c4c(F)cc(F)cc43)C2)C(=O)N1 (stereo not given in full) | 9.60
O=C(NCC(F)(F)F)[C@H]1C[C@H](c2c(-c3ccc(F)cc3)[nH]c3c(F)cc(F)cc32)C1 | 9.60
O=C(NCc1ccco1)O[C@H]1C[C@H](c2c(-c3ccc(F)cc3)[nH]c3c(F)cc(F)cc32)C1 | < 6.00
CC[C@@H](CO)NC(=O)NC[C@H]1C[C@H](c2c(-c3ccc(F)cc3)[nH]c3c(F)cc(F)cc32)C1 | < 6.00
O=C([C@H]1C[C@H](c2c(-c3ccc(F)cc3)[nH]c3c(F)cc(F)cc32)C1)N1CCOC(O)C1 (stereo not given in full) | 9.60
NC(=O)[C@@H]1CCN(C(=O)[C@H]2C[C@H](c3c(-c4ccc(F)cc4)[nH]c4c(F)cc(F)cc43)C2)C1 | < 6.00
O=C([C@H]1C[C@H](c2c(-c3ccc(F)cc3)[nH]c3c(F)cc(F)cc32)C1)N1CC(CO)C1 | < 6.00
CC(C)N(CCO)C(=O)[C@H]1C[C@H](c2c(-c3ccc(F)cc3)[nH]c3c(F)cc(F)cc32)C1 | < 6.00
CCC(CO)NC(=O)[C@H]1C[C@H](c2c(-c3ccc(F)cc3)[nH]c3c(F)cc(F)cc32)C1 (stereo not given in full) | > 6.60
O=C1NCCCC1NC(=O)[C@H]1C[C@H](c2c(-c3ccc(F)cc3)[nH]c3c(F)cc(F)cc32)C1 (stereo not given in full) | 9.60
CN(CC1(CO)CC1)C(=O)[C@H]1C[C@H](c2c(-c3ccc(F)cc3)[nH]c3c(F)cc(F)cc32)C1 | < 6.00
O=C(NC(CO)(CO)CO)[C@H]1C[C@@H](c2c(-c3ccc(F)cc3)[nH]c3c(F)cc(F)cc32)C1 | 9.60
C[C@H](O)[C@H](CO)NC(=O)O[C@H]1C[C@H](c2c(-c3ccc(F)cc3)[nH]c3c(F)cc(F)cc32)C1 | < 6.00
O=C([C@H]1C[C@H](c2c(-c3ccc(F)cc3)[nH]c3c(F)cc(F)cc32)C1)N1CC(O)C(N2CCOCC2)C1 (stereo not given in full) | < 6.00
CN(C(=O)NC[C@H]1C[C@H](c2c(-c3ccc(F)cc3)[nH]c3c(F)cc(F)cc32)C1)C1COCC1O (stereo not given in full) | < 6.00

###

- MEASUREMENT_TARGET: Apolipoprotein L1 (Homo sapiens, UniProt O14791)
- ASSAY_NOTES: Inhibition of APOL1 G1 variant in human HEK293-T-REx cells measured by Thallium assay
pIC50: −log10 of the molar value.

MOLECULE | MEASUREMENT_TARGET | pIC50
O=C(NCC1(O)CCC1)C1CC(Cc2c(-c3ccc(F)cc3)[nH]c3c(F)cc(F)cc23)C1 (configuration not stated) | Apolipoprotein L1 (Homo sapiens, UniProt O14791) | < 6.00
CC(CO)NC(=O)[C@H]1C[C@@H](c2c(-c3ccc(F)cc3)[nH]c3c(F)cc(F)cc32)C1 (some centres not stated) | Apolipoprotein L1 (Homo sapiens, UniProt O14791) | < 6.00
O=C(NC[C@@H](O)C(F)(F)F)[C@H]1C[C@H](c2c(-c3ccc(F)cc3)[nH]c3c(F)cc(F)cc32)C1 | Apolipoprotein L1 (Homo sapiens, UniProt O14791) | 9.60
Cc1cc(CNC(=O)[C@H]2C[C@H](c3c(-c4ccc(F)cc4)[nH]c4c(F)cc(F)cc43)C2)on1 | Apolipoprotein L1 (Homo sapiens, UniProt O14791) | < 6.00
Cn1ncc(CNC(=O)[C@H]2C[C@H](c3c(-c4ccc(F)cc4)[nH]c4c(F)cc(F)cc43)C2)n1 | Apolipoprotein L1 (Homo sapiens, UniProt O14791) | 9.60
CNC(=O)NC[C@H]1C[C@H](c2c(-c3ccc(F)cc3)[nH]c3c(F)cc(F)cc32)C1 | Apolipoprotein L1 (Homo sapiens, UniProt O14791) | 9.60
CN(C(=O)[C@H]1C[C@H](c2c(-c3ccc(F)cc3)[nH]c3c(F)cc(F)cc32)C1)C1COCC1O (some centres not stated) | Apolipoprotein L1 (Homo sapiens, UniProt O14791) | < 6.00
O=C1C[C@H](NC(=O)[C@H]2C[C@H](c3c(-c4ccc(F)cc4)[nH]c4c(F)cc(F)cc43)C2)C(=O)N1 | Apolipoprotein L1 (Homo sapiens, UniProt O14791) | > 6.60
O=C([C@H]1C[C@H](c2c(-c3ccc(F)cc3)[nH]c3c(F)cc(F)cc32)C1)N1CCOC[C@H]1CO | Apolipoprotein L1 (Homo sapiens, UniProt O14791) | < 6.00
O=C1OCC[C@@H]1NC(=O)[C@H]1C[C@H](c2c(-c3ccc(F)cc3)[nH]c3c(F)cc(F)cc32)C1 | Apolipoprotein L1 (Homo sapiens, UniProt O14791) | 9.60
O=C([C@H]1C[C@H](c2c(-c3ccc(F)cc3)[nH]c3c(F)cc(F)cc32)C1)N(CCO)CCCO | Apolipoprotein L1 (Homo sapiens, UniProt O14791) | < 6.00
O=C(N[C@H]1CC[C@@H]1O)[C@H]1C[C@H](c2c(-c3ccc(F)cc3)[nH]c3c(F)cc(F)cc32)C1 | Apolipoprotein L1 (Homo sapiens, UniProt O14791) | < 6.00
N#CC(CO)NC(=O)[C@H]1C[C@H](c2c(-c3ccc(F)cc3)[nH]c3c(F)cc(F)cc32)C1 (some centres not stated) | Apolipoprotein L1 (Homo sapiens, UniProt O14791) | > 6.60
O=C1CC[C@@H](NC(=O)[C@H]2C[C@H](c3c(-c4ccc(F)cc4)[nH]c4c(F)cc(F)cc43)C2)C1 | Apolipoprotein L1 (Homo sapiens, UniProt O14791) | < 6.00
CC(C)C(CO)NC(=O)[C@H]1C[C@H](c2c(-c3ccc(F)cc3)[nH]c3c(F)cc(F)cc32)C1 (some centres not stated) | Apolipoprotein L1 (Homo sapiens, UniProt O14791) | < 6.00
CC(C)(NC(=O)[C@H]1C[C@H](c2c(-c3ccc(F)cc3)[nH]c3c(F)cc(F)cc32)C1)C(=O)N1CCOCC1 | Apolipoprotein L1 (Homo sapiens, UniProt O14791) | < 6.00
CN(CC(N)=O)C(=O)[C@H]1C[C@H](c2c(-c3ccc(F)cc3)[nH]c3c(F)cc(F)cc32)C1 | Apolipoprotein L1 (Homo sapiens, UniProt O14791) | 9.60
O=C1CCC(NC(=O)[C@H]2C[C@H](c3c(-c4ccc(F)cc4)[nH]c4c(F)cc(F)cc43)C2)C1 (some centres not stated) | Apolipoprotein L1 (Homo sapiens, UniProt O14791) | < 6.00
O=C(NCC1(O)COC1)NC[C@H]1C[C@H](c2c(-c3ccc(F)cc3)[nH]c3c(F)cc(F)cc32)C1 | Apolipoprotein L1 (Homo sapiens, UniProt O14791) | < 6.00
CC(O)[C@H](CO)NC(=O)[C@H]1C[C@@H](c2c(-c3ccc(F)cc3)[nH]c3c(F)cc(F)cc32)C1 (some centres not stated) | Apolipoprotein L1 (Homo sapiens, UniProt O14791) | < 6.00
CON(C)C(=O)CNC[C@H]1C[C@H](c2c(-c3ccc(F)cc3)[nH]c3c(F)cc(F)cc32)C1 | Apolipoprotein L1 (Homo sapiens, UniProt O14791) | 9.60
CC(CO)N(C)C(=O)[C@H]1C[C@H](c2c(-c3ccc(F)cc3)[nH]c3c(F)cc(F)cc32)C1 (some centres not stated) | Apolipoprotein L1 (Homo sapiens, UniProt O14791) | > 6.60
O=C([C@H]1C[C@H](c2c(-c3ccc(F)cc3)[nH]c3c(F)cc(F)cc32)C1)N1CC[C@H]1CO | Apolipoprotein L1 (Homo sapiens, UniProt O14791) | 9.60
O=C([C@H]1C[C@H](c2c(-c3ccc(F)cc3)[nH]c3c(F)cc(F)cc32)C1)N1CCC[C@@H](CO)C1 | Apolipoprotein L1 (Homo sapiens, UniProt O14791) | < 6.00
O=C(CNC[C@H]1C[C@H](c2c(-c3ccc(F)cc3)[nH]c3c(F)cc(F)cc32)C1)NC1CC1 | Apolipoprotein L1 (Homo sapiens, UniProt O14791) | 9.60
O=C(NCC(O)C(F)F)C1CC(Cc2c(-c3ccc(F)cc3)[nH]c3c(F)cc(F)cc23)C1 (configuration not stated) | Apolipoprotein L1 (Homo sapiens, UniProt O14791) | < 6.00
O=C1NCCC1NC(=O)[C@H]1C[C@H](c2c(-c3ccc(F)cc3)[nH]c3c(F)cc(F)cc32)C1 (some centres not stated) | Apolipoprotein L1 (Homo sapiens, UniProt O14791) | > 6.60
CC1(C)CC(C)(NC(=O)NC[C@H]2C[C@H](c3c(-c4ccc(F)cc4)[nH]c4c(F)cc(F)cc43)C2)C(=O)O1 (some centres not stated) | Apolipoprotein L1 (Homo sapiens, UniProt O14791) | < 6.00
O=C(OC1CN(C(=O)C2CC(c3c(-c4ccc(F)cc4)[nH]c4c(F)cc(F)cc34)C2)C1)C1CCOCC1 (trans isomer) | Apolipoprotein L1 (Homo sapiens, UniProt O14791) | 9.60
NC(=O)CNCC1CC(c2c(-c3ccc(F)cc3)[nH]c3c(F)cc(F)cc23)C1 (configuration not stated) | Apolipoprotein L1 (Homo sapiens, UniProt O14791) | > 6.60
C[C@]1(NC(=O)NC[C@H]2C[C@H](c3c(-c4ccc(F)cc4)[nH]c4c(F)cc(F)cc43)C2)C[C@@H](O)C1 | Apolipoprotein L1 (Homo sapiens, UniProt O14791) | < 6.00
O=C(N[C@@H](CO)C(F)F)[C@H]1C[C@H](c2c(-c3ccc(F)cc3)[nH]c3c(F)cc(F)cc32)C1 | Apolipoprotein L1 (Homo sapiens, UniProt O14791) | > 6.60
